tested on: T-47D breast; assay: NCI-60 one-dose screen, 48 h (100 = growth as untreated, 0 = no growth, -100 = all killed); settings: 10 µM unless noted
The panel holds about 83,000 compounds, 20% with a hit somewhere; the sample as a whole holds those more often.
Measured Metric: growth (%)
One number for each entry, in %.

Give me growth for each of these compounds, listed below.
1. CCc1nc2cc(/C=C/C(=O)NO)c(F)cc2c(=O)n1CCc1ccccc1
2. CC1(C)NC(=O)c2[nH]c3c(Cl)c(Cl)ccc3c2C1C#N (centres undefined)
3. N#CC(C#N)=NO
4. COC(=O)[C@@H](C)CNS(=O)(=O)N(c1cc(C(F)(F)F)cc(C(F)(F)F)c1)C1CCN(Cc2ccc(F)cc2)CC1

Response:
1. -0.665
2. 59.2
3. 102
4. 31.1

Count: 5. Required value per item: growth.
1. Cc1ccc(C(=O)Nc2ccc(CN3CCN(C)CC3)c(C(F)(F)F)c2)cc1C#Cc1cnc2cccnn12
2. O=C1CC(c2ccc(Cl)cc2)c2ncn(-c3cccc(Cl)c3)c2N1 (centres undefined)
3. Cc1nc(N)sc1-c1ccnc(Nc2ccc(N3CCOCC3)cc2)n1
4. CO[C@H]1C[C@@H]2CC[C@@H](C)[C@@](O)(O2)C(=O)C(=O)N2CCCC[C@H]2C(=O)O[C@H]([C@H](C)C[C@@H]2CC[C@@H](O)[C@H](OC)C2)CC(=O)[C@H](C)/C=C(\C)[C@@H](O)[C@@H](OC)C(=O)[C@H](C)C[C@H](C)\C=C/C=C/C=C/1C
5. CN1CCN(c2ccc(C(=O)Nc3n[nH]c4ccc(Cc5cc(F)cc(F)c5)cc34)c(NC3CCOCC3)c2)CC1

Response:
-70.9
68.7
29.8
-5.21
-65.6
